Test system: NCI-H841 complex tumor spheroid viability
Assay: Anticancer human tumor NCI-H841 cell line growth inhibition; active = viability on the fitted dose curve at most 10% of control; inactive = the rest;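 note: spheroids exposed to compounds for 7 days before readout; 100% = DMSO vehicle control wells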
Conditions: second compound 0.003 µM; first compound 0.949 µM
Classes used: 1 = active, -1 = inactive

* O=C(c1cc(Cc2n[nH]c(=O)c3ccccc23)ccc1F)N1CCN(C(=O)C2CC2)CC1 + CC[C@@]1(O)C(=O)OCc2c1cc1n(c2=O)Cc2cc3c(CN(C)C)c(O)ccc3nc2-1 | -1
* CNCc1ccc(-c2cc(-c3nc(-c4ccc(S(=O)(=O)C(C)C)cc4)cnc3N)on2)cc1 + COc1cc2c(cc1O)CCNC21CSC2c3c(OC(C)=O)c(C)c4c(c3C(COC1=O)N1C(O)C3Cc5cc(C)c(OC)c(O)c5C(C21)N3C)OCO4 | 1
* Cc1sc2c(c1C)C(c1ccc(Cl)cc1)=NC(CC(=O)Nc1ccc(O)cc1)c1nnc(C)n1-2 (stereo not drawn) + COc1cc2c(cc1O)CCNC21CSC2c3c(OC(C)=O)c(C)c4c(c3C(COC1=O)N1C(O)C3Cc5cc(C)c(OC)c(O)c5C(C21)N3C)OCO4 | 1
